tested on: U251 CNS; assay: NCI tumour cell line growth inhibition, 48 h
As shown below, each of these compounds has a reported TGI value.

[
  {
    "COMPOUND": "Cn1c2c(c3ccc([N+](=O)[O-])cc3c1=O)C(=O)c1ccccc1-2",
    "TGI": "> 100 µM"
  },
  {
    "COMPOUND": "COC(=O)c1cc(C(=CCC[C@H]2CC[C@@]3(C)C(CCC4C3CC[C@@]3(C)C4CC[C@@H]3C(C)CCCC(C)C)C2)c2cc(Cl)c(O)c(C(=O)OC)c2)cc(Cl)c1O (stereo not given in full)",
    "TGI": "> 10 µM"
  },
  {
    "COMPOUND": "CC1CCCC(C(O)CC2CC(=O)NC(=O)C2)C1O (stereo not given)",
    "TGI": "> 100 µM"
  },
  {
    "COMPOUND": "Cc1ccc(S(=O)(=O)Oc2nc3ccccc3nc2OS(=O)(=O)c2ccc(C)cc2)cc1",
    "TGI": "> 100 µM"
  },
  {
    "COMPOUND": "S=C(Nc1ccc(-c2nc3ccccc3[nH]2)cc1)Nc1ccc(-c2nc3ccccc3[nH]2)cc1",
    "TGI": "> 100 µM"
  },
  {
    "COMPOUND": "CN(C)CCNC(=O)c1cccc(N(C)C(=O)c2ccccc2)c1[N+](=O)[O-]",
    "TGI": "> 100 µM"
  },
  {
    "COMPOUND": "CCN(CC)c1ccc(C(O)C2=CC(=O)c3ccccc3C2=O)cc1 (stereo not given)",
    "TGI": "7.34 µM"
  },
  {
    "COMPOUND": "CC1SCc2nc3ccccc3n21 (stereo not given)",
    "TGI": "> 100 µM"
  },
  {
    "COMPOUND": "CCOC(=O)C1=CCOc2cc(N(C)C)ccc21",
    "TGI": "> 100 µM"
  },
  {
    "COMPOUND": "N=c1ccn(O)cc1/C=C1/C(=O)Nc2ccccc21",
    "TGI": "> 100 µM"
  }
]
